target: FLuc-C-HiBiT (Photinus pyralis, UniProt P08659); construct: firefly luciferase with C-terminal HiBiT tag, E. coli expressed; experiment: biochemical; conditions: enzyme activity, 10 uM ATP; read-out: IC50 or SDR50 (mM) / FLuc E
Sequence (P08659 whole entry, looked up): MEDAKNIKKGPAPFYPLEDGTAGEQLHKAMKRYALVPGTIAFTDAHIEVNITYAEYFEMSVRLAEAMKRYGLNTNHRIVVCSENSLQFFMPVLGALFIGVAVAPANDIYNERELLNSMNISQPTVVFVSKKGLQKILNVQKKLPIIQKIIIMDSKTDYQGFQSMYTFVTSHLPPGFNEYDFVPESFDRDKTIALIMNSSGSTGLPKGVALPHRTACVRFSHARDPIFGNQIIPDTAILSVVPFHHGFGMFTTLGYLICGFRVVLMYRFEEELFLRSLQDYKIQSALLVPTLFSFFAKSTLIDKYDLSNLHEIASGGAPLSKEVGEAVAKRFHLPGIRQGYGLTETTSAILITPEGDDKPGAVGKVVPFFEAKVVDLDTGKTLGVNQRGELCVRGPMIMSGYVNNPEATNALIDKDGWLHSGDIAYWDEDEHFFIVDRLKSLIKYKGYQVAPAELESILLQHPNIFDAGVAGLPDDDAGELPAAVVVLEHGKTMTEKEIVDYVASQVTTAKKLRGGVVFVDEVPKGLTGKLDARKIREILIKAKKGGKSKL
Cut-off 0.008 mM on IC50: below means 1.0, at or above means 0.0.

Illustrative cases are given below, each with its answer.
COMPOUND: COc1ccc2cc(C3CN(C(=O)c4cccc(CO)n4)CCO3)ccc2c1 (stereo not drawn)
ASSIGNED LABEL: 0.0

COMPOUND: CN1c2cc(C(=O)Nc3cc(F)ccc3F)ccc2C(=O)N2CCCCCC21 (stereo not drawn)
ASSIGNED LABEL: 0.0

COMPOUND: Cc1nc[nH]c1CN1CCNc2cc(Nc3ccccc3)ncc2C1
ASSIGNED LABEL: 0.0

Regarding `Cc1ccc(NC(=O)Nc2ccc(C)n(CC(=O)NCC(C)C)c2=O)cc1` , kindly confirm whether its IC50 is beneath 0.008 mM.
1.0

Regarding `CN1CCN(C[C@@H]2CN(C(=O)CCCc3ccccc3)C[C@@H]2CO)CC1` , kindly confirm whether its IC50 is beneath 0.008 mM.
0.0

Regarding `Cc1ccc(/C=C/c2nc3ccccc3n2S(=O)(=O)c2ccc(Br)cc2)cc1` , kindly confirm whether its IC50 is beneath 0.008 mM.
1.0

Regarding `Cc1ccc(-n2ncc3c(N4CCCCC4)ncnc32)cc1Cl` , kindly confirm whether its IC50 is beneath 0.008 mM.
1.0

----------
target: FLuc-C-NLuc (firefly luciferase) (Photinus pyralis, UniProt P08659, form not given/L550V); assay: SDR assay, FLuc-C-NLuc; settings: Log[Compound], M -9.25; absence of ATP
Sequence (P08659 2-550 L550V, form open): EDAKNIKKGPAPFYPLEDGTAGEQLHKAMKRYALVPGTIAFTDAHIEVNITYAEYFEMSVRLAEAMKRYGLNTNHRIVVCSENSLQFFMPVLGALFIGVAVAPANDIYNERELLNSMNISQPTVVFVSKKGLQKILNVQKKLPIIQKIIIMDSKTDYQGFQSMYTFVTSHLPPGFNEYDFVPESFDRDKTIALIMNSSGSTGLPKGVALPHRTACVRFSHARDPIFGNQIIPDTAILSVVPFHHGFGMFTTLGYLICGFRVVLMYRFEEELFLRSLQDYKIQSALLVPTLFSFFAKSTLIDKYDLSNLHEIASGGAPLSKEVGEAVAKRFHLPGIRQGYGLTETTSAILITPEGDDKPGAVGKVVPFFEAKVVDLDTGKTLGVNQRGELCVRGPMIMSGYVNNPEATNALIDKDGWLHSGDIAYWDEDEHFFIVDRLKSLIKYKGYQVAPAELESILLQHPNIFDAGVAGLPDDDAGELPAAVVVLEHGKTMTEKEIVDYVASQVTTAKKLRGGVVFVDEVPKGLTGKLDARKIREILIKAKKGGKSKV
QUANTITY MEASURED: SDR
// keep it numeric: no unit symbol after the value

Answered cases to consult:
MOLECULE: COc1ccc(NC(=O)C2CCN(C(=O)c3ncn4c3COC(c3ccccc3)C4)CC2)cc1Cl (centres unmarked)
SDR: 12.55

MOLECULE: O=C(Nc1cccc(F)c1)C1CCN(C(=O)c2ncn3c2COC(c2ccccc2)C3)CC1 (centres unmarked)
SDR: 9.59

MOLECULE: CC1CCC(NC(=O)C2CCN(C(=O)c3ncn4c3COC(c3ccc(Cl)cc3)C4)CC2)CC1 (centres unmarked)
SDR: 3.41

MOLECULE: CC(CNC(=O)C1CCN(C(=O)c2ncn3c2COC(c2ccccc2)C3)CC1)c1ccccc1 (centres unmarked)
SDR: 9.61

Please turn your attention to the following entry.
Request the reported SDR associated with CC(NC(=O)C1CCN(C(=O)c2ncn3c2COC(c2ccc(F)cc2)C3)CC1)c1ccc(F)cc1 (centres unmarked)
3.86

----------
Biological target: FLuc-C-HiBiT (firefly luciferase) (Photinus pyralis, UniProt P08659, form not given/L550V)
Sequence (P08659 2-550 L550V, form open): as above
Assay: Firefly luciferase (FLuc) enzymatic luminescence assay, FLuc-C-HiBiT
Assay type: biochemical
Design: key: % normalized; no enzyme control = 100% inhibition, DMSO = 0
Conditions: 10 nM FLuc-C-HiBiT; normalized activity; Log [Compound], M -8.78
Protocol: The enzyme activity of FLuc-N-HiBiT, FLuc-C-HiBiT, and FLuc-C-NLuc was measured similar to P. pyralis firefly luciferase (FLuc) as previously described. […] Luciferin was incubated with FLuc enzyme for 5 min before FLuc activity was then measured on a ViewLux CCD imager (PerkinElmer), with exposure times up to ten seconds with medium to high gain settings. […] 5 Detector ViewLux Read plate lum inescence (Exposure = 1- 10 sec; Gain = Medium -high; Speed = Slow; […]
QUANTITY MEASURED: FLuc Enzyme

Answered cases to consult:
MOLECULE: CC1CCCN(c2ncnc3c2cnn3-c2ccccc2)C1 (stereo not drawn)
FLuc Enzyme: 8.7

MOLECULE: Fc1ccc(-c2cn3cc(Cc4ccccc4)sc3n2)cc1
FLuc Enzyme: 0.6

Please turn your attention to the following entry.
Request the reported FLuc Enzyme associated with CC(CNC(=O)C1CCN(C(=O)c2ncn3c2COC(c2ccccc2)C3)CC1)c1ccccc1 (stereo not drawn)
3.7
